Target: T1, human ferroportin (SLC40A1) fused in frame with GFP, stably expressed in HEK293 cells (human, UniProt Q9NP59 1-571)
T1 sequence (looked up): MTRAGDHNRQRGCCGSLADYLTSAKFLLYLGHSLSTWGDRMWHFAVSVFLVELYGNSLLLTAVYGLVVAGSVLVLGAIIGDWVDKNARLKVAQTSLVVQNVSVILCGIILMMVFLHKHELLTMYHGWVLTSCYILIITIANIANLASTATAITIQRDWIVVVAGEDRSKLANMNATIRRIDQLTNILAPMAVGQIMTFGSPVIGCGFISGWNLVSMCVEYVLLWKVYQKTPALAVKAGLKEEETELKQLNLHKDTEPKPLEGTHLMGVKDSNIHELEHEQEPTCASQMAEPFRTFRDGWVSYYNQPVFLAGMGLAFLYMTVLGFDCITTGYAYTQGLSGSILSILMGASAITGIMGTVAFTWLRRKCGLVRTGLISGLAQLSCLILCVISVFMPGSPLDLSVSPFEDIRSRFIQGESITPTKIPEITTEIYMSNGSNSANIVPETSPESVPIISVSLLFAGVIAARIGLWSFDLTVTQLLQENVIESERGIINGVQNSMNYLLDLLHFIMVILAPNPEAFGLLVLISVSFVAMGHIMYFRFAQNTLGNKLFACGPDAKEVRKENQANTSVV
Assay: cell-based or functional assay
Starred links: 1 amine or outer side, 2 acyl side, 3 side chain; linkers in the order of their positions; H or OH if unused. Positions of bridges follow the written chain, without caps; N, C: chain ends. Non-standard residues stand in square brackets, D forms with d. Groups on a side chain read outwards from the residue. *: point of attachment. Gal = N6-(4-(galactopyranosyloxy)butanoyl) on the lysine side chain; Glu(OMe) = COC(=O)CC[C@H](N[*:1])C(=O)[*:2]; C18 diacid = O=C(O)CCCCCCCCCCCCCCCCC(=O)*; Dip = N[C@H](C(=O)O)C(c1ccccc1)c1ccccc1; Palmitoyl = CCCCCCCCCCCCCCCC(=O)*; β3hF = N[C@H](CC(=O)O)Cc1ccccc1; Isovaleryl = CC(C)CC(=O)*; NMeA = CN[C@@H](C)C(=O)O; Dap = NC[C@H](N)C(=O)O; AEEA = NCCOCCOCC(=O)O; Acryloyl = C=CC(=O)*; Ahx = NCCCCCC(=O)O
metric: IC50: FPN internalisation (nM)

# example entries with known answers
Isovaleryl-ETH[Dip]PCI[dK]AK([Ahx-Palmitoyl])[dK]C-NH2 (not fully specified (bridges); cysteine pairing not given here) [Seq. No. 572] = 8.47
XXTHXPCIXXXC (not fully specified; [Isovaleric Acid]-[Dap]-T-H-[Dpa]-P-C-I-[Lys(1PEG2_1PEG2_Ahx_C18_Diacid)]-[bhPhe]-[(D)Lys]-C-NH2) [Seq. No. 557] = 14.2
Isovaleryl-[Glu(OMe)]TH[Dip]PC[dR]K([AEEA-AEEA-Dap-C18 diacid])[β3hF][dK]C-NH2 (disulfide 6-11 (inferred)) [Seq. No. 536] = 94.1
Isovaleryl-ETH[Dip]PCK(Gal)K([AEEA-AEEA-Ahx-C18 diacid])[β3hF][dK]C-NH2 (not fully specified (bridges); cysteine pairing not given here) [Seq. No. 561] = 17.9

(P) Isovaleryl-ETH[Dip]K(Acryloyl)CI[dK][β3hF]K([Ahx-Palmitoyl])[dK]C-NH2 (not fully specified (bridges); cysteine pairing not given here) [Seq. No. 554]
(Q) Isovaleryl-ETH[Dip][NMeA]CI[dK][β3hF]K([Ahx-Palmitoyl])[dK]C-NH2 (not fully specified (bridges); cysteine pairing not given here) [Seq. No. 567]
Could you please tell me which of these two has the higher IC50: FPN internalisation: P or Q ? Your answer should be the label attached to the chosen record. P
(P: 103 nM, Q: 30.8 nM)

(P) Isovaleryl-ETH[Dip]LCI[dK][β3hF]K([Ahx-Palmitoyl])[dK]C-NH2 (not fully specified (bridges); cysteine pairing not given here) [Seq. No. 569]
(Q) Isovaleryl-ETHK(Acryloyl)PCI[dK][β3hF]K([Ahx-Palmitoyl])[dK]C-NH2 (not fully specified (bridges); cysteine pairing not given here) [Seq. No. 553]
Which record shows the lower IC50: FPN internalisation: the first, P , or the second, Q ? Your answer should be the label attached to the chosen record. P
